# IC50 annotations
# protocol_description: Inhibition of Bacillus anthracis edema factor-induced cytotoxicity in mouse RAW264.7 cells assessed as LDH release after 4 hrs

compound_structure: COC(=O)c1ccc([C@H]2Nc3ccc(C(=O)O)cc3[C@@H]3C=CC[C@H]23)cc1
result_unit: µM
IC50: 100
--
compound_structure: O=C(O)c1cccc(NC(=O)c2cccc3c2C(=O)c2ccccc2-3)c1
result_unit: µM
IC50: 1.7
